Please go through the items and note down their inhibition.
Target: Tyrosine-protein kinase JAK2 (Homo sapiens) (UniProt O60674)
Sequence (O60674 whole entry): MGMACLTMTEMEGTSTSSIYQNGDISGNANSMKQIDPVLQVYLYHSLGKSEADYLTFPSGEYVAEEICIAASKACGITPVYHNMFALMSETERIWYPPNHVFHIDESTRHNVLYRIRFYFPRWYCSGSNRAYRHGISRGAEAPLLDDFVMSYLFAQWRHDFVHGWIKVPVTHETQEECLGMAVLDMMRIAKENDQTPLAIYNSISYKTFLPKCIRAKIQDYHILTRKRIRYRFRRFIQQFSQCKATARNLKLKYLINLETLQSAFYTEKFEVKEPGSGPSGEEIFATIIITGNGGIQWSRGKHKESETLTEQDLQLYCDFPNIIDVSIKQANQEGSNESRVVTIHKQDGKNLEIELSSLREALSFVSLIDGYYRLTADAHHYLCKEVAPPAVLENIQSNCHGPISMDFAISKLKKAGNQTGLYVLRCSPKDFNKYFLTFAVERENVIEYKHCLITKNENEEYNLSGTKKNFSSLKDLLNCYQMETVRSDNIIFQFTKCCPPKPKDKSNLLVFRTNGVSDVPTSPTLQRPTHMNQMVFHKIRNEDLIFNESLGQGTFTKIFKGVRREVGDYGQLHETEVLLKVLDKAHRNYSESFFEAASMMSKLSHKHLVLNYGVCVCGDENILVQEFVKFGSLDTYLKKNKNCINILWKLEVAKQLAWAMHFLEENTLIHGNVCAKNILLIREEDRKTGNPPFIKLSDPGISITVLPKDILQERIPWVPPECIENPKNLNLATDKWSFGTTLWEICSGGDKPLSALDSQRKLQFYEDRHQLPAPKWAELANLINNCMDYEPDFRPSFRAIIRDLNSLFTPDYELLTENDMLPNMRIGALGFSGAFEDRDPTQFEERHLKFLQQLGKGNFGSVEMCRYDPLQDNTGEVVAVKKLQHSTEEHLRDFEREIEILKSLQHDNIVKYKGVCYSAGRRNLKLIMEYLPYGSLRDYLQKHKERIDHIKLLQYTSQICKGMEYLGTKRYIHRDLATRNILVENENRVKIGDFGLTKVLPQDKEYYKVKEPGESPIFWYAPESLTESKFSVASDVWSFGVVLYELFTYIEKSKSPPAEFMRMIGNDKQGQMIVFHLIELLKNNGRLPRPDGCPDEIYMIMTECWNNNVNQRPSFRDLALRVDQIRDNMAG
Details: at 10 µM
Description: Inhibition of JAK2 (unknown origin) at 10 uM
Answers are plain numbers, in %.

INSERT INTO assay_data (smiles_data, assayed_target, readout_units, observed_value) VALUES
  ('NC(=O)c1cc(-c2cccc3[nH]ncc23)cc2cn[nH]c12', 'Tyrosine-protein kinase JAK2 (Homo sapiens) (UniProt O60674)', '%', 1.2);

Hello, I would appreciate it if you could give inhibition for each entry below.
1. NC(=O)c1cc(-c2cc(N)cc3[nH]ncc23)cc2cn[nH]c12
2. NC(=O)c1cc(-c2cc(N)cc3[nH]ncc23)cc2c(C#CCCO)n[nH]c12
3. NC(=O)c1cc(-c2cccc3[nH]ncc23)cc2c(C#CCCO)n[nH]c12
4. NC(=O)c1cc(-c2cccc3[nH]ncc23)cc2c(C#CCO)n[nH]c12
5. NC(=O)c1cc(-c2cc(N)cc3[nH]ncc23)cc2c(C#CCO)n[nH]c12

Result:
9.1
2.5
6.7
2.2
-0.4

---

Target: Tyrosine-protein kinase JAK3 (Homo sapiens) (UniProt P52333)
Sequence (P52333 whole entry): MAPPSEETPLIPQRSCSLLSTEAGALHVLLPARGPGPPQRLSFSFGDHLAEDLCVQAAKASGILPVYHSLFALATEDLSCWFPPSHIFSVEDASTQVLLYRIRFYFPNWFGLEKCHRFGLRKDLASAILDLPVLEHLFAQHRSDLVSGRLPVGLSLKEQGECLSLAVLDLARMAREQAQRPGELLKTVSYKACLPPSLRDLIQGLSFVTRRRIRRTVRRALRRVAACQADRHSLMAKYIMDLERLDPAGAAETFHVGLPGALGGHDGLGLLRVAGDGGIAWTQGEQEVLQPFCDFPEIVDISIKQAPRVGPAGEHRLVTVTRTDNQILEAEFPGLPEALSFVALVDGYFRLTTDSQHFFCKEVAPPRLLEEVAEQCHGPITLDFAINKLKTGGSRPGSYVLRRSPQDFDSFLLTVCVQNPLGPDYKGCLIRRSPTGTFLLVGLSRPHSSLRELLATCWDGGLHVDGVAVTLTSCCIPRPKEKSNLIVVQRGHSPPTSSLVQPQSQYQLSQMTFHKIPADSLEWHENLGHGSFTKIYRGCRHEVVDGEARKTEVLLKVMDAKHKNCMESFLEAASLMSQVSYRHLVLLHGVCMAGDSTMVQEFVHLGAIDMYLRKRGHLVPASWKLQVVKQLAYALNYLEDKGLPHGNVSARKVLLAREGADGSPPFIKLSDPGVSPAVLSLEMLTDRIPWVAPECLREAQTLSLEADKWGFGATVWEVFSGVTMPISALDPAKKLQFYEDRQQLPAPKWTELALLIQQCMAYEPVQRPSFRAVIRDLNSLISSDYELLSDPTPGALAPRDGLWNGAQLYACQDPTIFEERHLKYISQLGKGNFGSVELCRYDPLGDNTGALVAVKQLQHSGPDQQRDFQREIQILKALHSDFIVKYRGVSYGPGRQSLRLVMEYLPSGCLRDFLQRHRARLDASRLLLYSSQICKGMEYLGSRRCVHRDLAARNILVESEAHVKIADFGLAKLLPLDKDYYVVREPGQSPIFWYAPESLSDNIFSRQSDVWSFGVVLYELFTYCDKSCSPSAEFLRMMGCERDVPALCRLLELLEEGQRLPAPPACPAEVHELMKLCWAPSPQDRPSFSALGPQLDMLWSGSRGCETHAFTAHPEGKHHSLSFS
Conditions: at 10 µM
Description: Inhibition of JAK3 (unknown origin) at 10 uM
Decide using inhibition: a value greater than or equal to 20% is Fulfilled, a smaller one is Not fulfilled.

INSERT INTO measurements (smiles_data, category_label) VALUES
  ('NC(=O)c1cc(-c2cccc3[nH]ncc23)cc2c(C#CCCO)n[nH]c12', 'Fulfilled');

Okay, now this molecule:
Query: Test whether the molecule NC(=O)c1cc(-c2cccc3[nH]ncc23)cc2cn[nH]c12 records inhibition of 20% or higher.
Result: Fulfilled

---

Molecular target: UniProt P52333
Details: at 10 µM
Exercise: state measured inhibition for each of the compounds provided.
One number for each entry, in %.

INSERT INTO results (smiles_data, observed_value) VALUES
  ('NC(=O)c1cc(-c2cc(N)cc3[nH]ncc23)cc2cn[nH]c12', 15.7);

The following compounds each have a reported value; give each one's inhibition.
1. NC(=O)c1cc(-c2cccc3[nH]ncc23)cc2c(C#CCO)n[nH]c12
2. NC(=O)c1cc(-c2cc(N)cc3[nH]ncc23)cc2c(C#CCO)n[nH]c12
3. NC(=O)c1cc(-c2cc(N)cc3[nH]ncc23)cc2c(C#CCCO)n[nH]c12

Result:
[24.9, 38.1, 48.1]
